assay overview: DDI study: pharmacokinetics of zanubrutinib in rats alone or with fluconazole / isavuconazole
Assay type: in vivo, Sprague–Dawley (SD) rats
measurement conditions: Sprague-Dawley, rat, plasma, po, 30 mg/kg, rats, zanubrutinib 30 mg/kg gavage; Group C: 20 mg/kg fluconazole; n = 6, mean ± SD; read-out: MRT(0−∞)
endpoint: MRT inf (h)
Lab book: enter the figure in h, no units written.

I have this compound here, C=CC(=O)N1CCC([C@@H]2CCNc3c(C(N)=O)c(-c4ccc(Oc5ccccc5)cc4)nn32)CC1 [zanubrutinib] , and I need its recorded MRT inf.
3

---

assay overview: DDI study: pharmacokinetics of zanubrutinib in rats alone or with fluconazole / isavuconazole
Type: in vivo, Sprague–Dawley (SD) rats
measurement conditions: Sprague-Dawley, rat, plasma, po, 30 mg/kg, rats, zanubrutinib 30 mg/kg gavage; Group B: 20 mg/kg isavuconazole; n = 6, mean ± SD
endpoint: half-life (h)
Expressed in h, but write only the number.

Look up half-life: `C=CC(=O)N1CCC([C@@H]2CCNc3c(C(N)=O)c(-c4ccc(Oc5ccccc5)cc4)nn32)CC1`
1.42
